Test: in vivo
Set-up: species or system mice
Conditions: mouse, iv, 3.4 MBq, total radioactivity, Biodistribution, Fat
Endpoint name: tissue uptake at 1 h

[ask] Quick one: tissue uptake at 1 h of CC(=O)NC(CCCCNC(=O)CN1CCN(CC(=O)O)CCN(CC(=O)O)CCN(CC(=O)O)CC1)C(=O)N1CCCC1C(=O)N(C)C(CCCNC(=N)N)C(=O)NC(CCCNC(=N)N)C(=O)N1CCCC1C(=O)NC(Cc1ccc(O)cc1)C(=O)NC(C(=O)NC(CC(C)C)C(=O)O)C(C)(C)C (stereo not shown) [^68Ga-DOTA-NT-20.3, metal not drawn] ?
[reply] 0.32 %ID/g
